Values of Ki for Melanocortin receptor 3 (Homo sapiens), collected from a number of published sources:

MOLECULE	Ki / nM
Cc1ccc(N2CCN(C(=O)[C@H]3CN(C4CCOCC4)C[C@@H]3c3ccc(Cl)cc3)CC2)c([C@@H](NC(=O)CCN(C)C)C(C)C)c1	1300
CC(=O)N[C@@H](Cc1ccccc1)C(=O)N[C@H](Cc1ccccc1)C(=O)N1C[C@H](OCc2ccc3ccccc3c2)C[C@@H]1CCCN=C(N)N	154
CCCCC(=O)N[C@@H](Cc1cnc[nH]1)C(=O)N[C@@H](Cc1ccccc1)C(=O)N[C@@H](CCCNC(=N)N)C(=O)N[C@@H](Cc1c[nH]c2ccccc12)C(N)=O	170
C[C@H]1CN(/C(=N/c2ccc(C(=O)NCCc3ccc(Cl)cc3Cl)cc2)NC2CCCCC2)CCN1	2800
N=C(N)NCCC[C@@H]1NC(=O)[C@@H](Cc2ccccc2)NC(=O)[C@H](Cc2c[nH]cn2)NC(=O)c2cc(N)ccc2SC[C@@H](C(N)=O)NC(=O)[C@H](Cc2c[nH]c3ccccc23)NC1=O	813
CNC1CCN(/C(=N/c2ccc(C(=O)NCCc3ccc(Cl)cc3Cl)cc2)NC2CCCCC2)C1 (stereo not drawn)	2300
COCC(=O)N[C@@H](Cc1cnc[nH]1)C(=O)N[C@@H](Cc1ccccc1)C(=O)N[C@@H](CCCNC(=N)N)C(=O)N[C@@H](Cc1c[nH]c2ccccc12)C(N)=O	380
N=C(N)NCCC[C@H](NC(=O)[C@H](Cc1ccccc1)NC(=O)[C@H](Cc1cnc[nH]1)NS(=O)(=O)c1ccc(Cl)cc1)C(=O)N[C@@H](Cc1c[nH]c2ccccc12)C(N)=O	440
O=C(N[C@H](Cc1ccc(Cl)cc1)C(=O)N1CCN(c2cccc3c2CN(S(=O)(=O)c2ccccc2)CC3)CC1)[C@H]1Cc2ccccc2CN1	1200
CCN(CC)CC(c1ccccc1F)N1CCN(C(=O)[C@@H](Cc2ccc(Cl)cc2)NC(=O)CC2NCCc3ccccc32)CC1 (stereo partly drawn)	4200
CC(C)CC(O)c1ccccc1N1CCN(C(=O)[C@@H](Cc2ccc(Cl)cc2Cl)NC(=O)CCN)CC1 (stereo partly drawn)	1700
CC(=O)N[C@H](Cc1ccccc1)C(=O)N1C[C@H](OCc2ccc3ccccc3c2)C[C@@H]1CCCN=C(N)N	289
CS(=O)(=O)N[C@@H](Cc1c[nH]cn1)C(=O)N[C@@H](Cc1ccccc1)C(=O)N[C@@H](CCCN=C(N)N)C(=O)N[C@@H](Cc1c[nH]c2ccccc12)C(N)=O	1900
